# Test system: 5637
# assay explanation: Antiproliferative activity against human 5637 cells assessed as inhibition of cell growth incubated for 24 hrs by MTT assay
# Assay type: functional, cell-based
# cond: Homo sapiens, 5637, 24 h
pIC50: −log10 of the molar value.

[
  {
    "smiles entry": "Cc1cn([C@H]2C[C@H](n3cc(CO)nn3)[C@@H](C[Te]c3ccccc3)O2)c(=O)[nH]c1=O",
    "pIC50": 5.09
  },
  {
    "smiles entry": "Cc1cn([C@H]2C[C@H](n3cc(CCCO)nn3)[C@@H](C[Te]c3ccccc3)O2)c(=O)[nH]c1=O",
    "pIC50": 5.70
  }
]
